# target_system: IDO (Homo sapiens (Human))
# experimental_details: SKOV3 (IDO) cell based assay for detection of kynurenine
# run_parameters: SKOV3 cells, IDO induced by IFN-γ, 48 hours, read-out: pIC50 SKOV3 (IDO) cell based assay (converted)
measurement_kind: IC50 (µM)

Solved entries:
CC1(C)CN(c2cc(Cl)cc3cncn23)CCC12NC(=O)NC2=O (stereo not drawn) [Example 8] ... 0.2
O=C1CC2(CCN(c3cc(C(F)(F)F)cc4cncn34)CC2)C(=O)N1 ... 1.26
O=C1NC(=O)C2(CCN(c3cc(Cl)cc4cncn34)CC2)N1 ... 1.41

[A] O=C1NC2(CCN(c3cc(C(F)(F)F)cc4cncn34)CC2)C(=O)N1c1ccccc1
[B] CN1C(=O)NC2(CCN(c3cc(C(F)(F)F)cc4cncn34)CC2(C)C)C1=O (stereo not drawn)
[C] O=C1NC(=O)C2(CCN(c3cc(Br)cc4cncn34)CC2)N1
[D] CC1(C)CN(c2cc(C(F)(F)F)cc3cncn23)CCC12NC(=O)N(CC1CCOCC1)C2=O (stereo not drawn)
[E] CC1(C)CN(c2cc(Br)cc3cncn23)CCC12NC(=O)NC2=O (stereo not drawn)
Place the items in sequence of falling IC50. Put the labels in the order asked and list them.
B, D, A, C, E
(B: 7.76 µM, D: 4.68 µM, A: 1.74 µM, C: 0.562 µM, E: 0.135 µM)

[1] O=C1NC(=O)C2(CCN(c3cc(C(F)(F)F)cn4cncc34)CC2)N1
[2] O=C1NC(=O)C2(CCN(c3cc(C(F)(F)F)cc4cncn34)CC2)N1
Between the entries labelled 1 and 2 , which has a larger IC50 value on record? Lab log: write the label of the selected item as the result.
1
(1: 4.79 µM, 2: 0.617 µM)

###

# target_system: TDO (Homo sapiens (Human), UniProt P48775)
# Sequence (P48775 whole entry): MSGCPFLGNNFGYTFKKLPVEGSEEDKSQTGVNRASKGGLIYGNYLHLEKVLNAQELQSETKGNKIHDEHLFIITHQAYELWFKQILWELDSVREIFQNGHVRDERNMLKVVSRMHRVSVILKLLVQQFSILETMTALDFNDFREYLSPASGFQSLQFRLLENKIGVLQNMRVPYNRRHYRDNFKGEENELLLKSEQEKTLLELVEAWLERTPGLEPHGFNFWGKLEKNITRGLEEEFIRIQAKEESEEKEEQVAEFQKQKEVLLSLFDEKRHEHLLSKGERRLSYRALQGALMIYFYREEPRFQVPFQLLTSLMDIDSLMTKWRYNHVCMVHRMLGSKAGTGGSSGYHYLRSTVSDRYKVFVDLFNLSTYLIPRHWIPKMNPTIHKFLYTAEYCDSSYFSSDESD
# experimental_details: A172 (TDO) cell based assay for detection of kynurenine
# run_parameters: A172 cells, 48 hours, read-out: pIC50 A172 (TDO) cell based assay (converted)
Reported IC50 is given for each of the following compounds.

Example entries and their recorded answers appear below.
CN1C(=O)NC2(CCN(c3cc(C(F)(F)F)cc4cncn34)CC2)C1=O ... > 10 µM
CC1(C)CN(c2cc(Cl)cc3cncn23)CCC12NC(=O)NC2=O (stereo not drawn) [Example 8] ... 7.94 µM
CC1(C)CN(c2cc(C(F)(F)F)cc3cncn23)CCC12NC(=O)N(CC1CCOCC1)C2=O (stereo not drawn) ... > 10 µM
CN1C(=O)NC2(CCN(c3cc(C(F)(F)F)cc4cncn34)CC2(C)C)C1=O (stereo not drawn) ... > 10 µM
O=C1NC2(CCN(c3cc(C(F)(F)F)cc4cncn34)CC2)C(=O)N1CC1CCOCC1 ... 10 µM

Given item CC1(C)CN(c2cc(Cl)cc3cncn23)CCC12NC(=O)NC2=O (stereo not drawn) [Example 11] , the value recorded as its IC50 is 2.09 µM

Field IC50 (entry O=C1NC(=O)C2(CCN(c3cc(C(F)(F)F)cc4cncn34)CC2)N1 ) reads > 10 µM

Record O=C1NC(=O)C2(CCN(c3cc(Br)cc4cncn34)CC2)N1 , field IC50: > 10 µM

Recorded IC50 (compound CC1(C)CN(c2cc(C(F)(F)F)cc3cncn23)CCC12NC(=O)N(c1ccccc1)C2=O (stereo not drawn) ): > 10 µM

Short answer for O=C1CC2(CCN(c3cc(C(F)(F)F)cc4cncn34)CC2)C(=O)N1 : IC50 was > 10 µM

Sample O=C1NC2(CCN(c3cc(C(F)(F)F)cc4cncn34)CC2)C(=O)N1c1ccccc1 ; IC50 observed: > 10 µM

The compound O=C1NC(=O)C2(CCN(c3cc(C(F)(F)F)cn4cncc34)CC2)N1 showed IC50 equal to > 10 µM

Item: CC1(C)CN(c2cc(C(F)(F)F)cn3cncc23)CCC12NC(=O)NC2=O (stereo not drawn) | IC50: 0.661 µM

Given item O=C1NC(=O)C2(CCN(c3cc(Cl)cc4cncn34)CC2)N1 , the value recorded as its IC50 is > 10 µM

Consider CC1(C)CN(c2cc(Br)cc3cncn23)CCC12NC(=O)NC2=O (stereo not drawn) . Its measured IC50 is 7.94 µM

###

# target_system: TDO (Homo sapiens (Human))
# experimental_details: hTDO biochemical coupled assay
# run_parameters: 330 μM L-tryptophan
measurement_kind: pIC50 hTDO biochemical coupled assay

CC1(C)CN(c2cc(Cl)cc3cncn23)CCC12NC(=O)NC2=O (centres unmarked) ... 6.33
CN1C(=O)NC2(CCN(c3cc(C(F)(F)F)cc4cncn34)CC2)C1=O ... 5.74
CN1C(=O)NC2(CCN(c3cc(C(F)(F)F)cc4cncn34)CC2(C)C)C1=O (centres unmarked) ... 5.57
CC1(C)CN(c2cc(Br)cc3cncn23)CCC12NC(=O)NC2=O (centres unmarked) ... 5.92
O=C1NC2(CCN(c3cc(C(F)(F)F)cc4cncn34)CC2)C(=O)N1c1ccccc1 ... 5.78

###

# target_system: IDO (Homo sapiens (Human), UniProt P14902)
# Sequence (P14902 whole entry): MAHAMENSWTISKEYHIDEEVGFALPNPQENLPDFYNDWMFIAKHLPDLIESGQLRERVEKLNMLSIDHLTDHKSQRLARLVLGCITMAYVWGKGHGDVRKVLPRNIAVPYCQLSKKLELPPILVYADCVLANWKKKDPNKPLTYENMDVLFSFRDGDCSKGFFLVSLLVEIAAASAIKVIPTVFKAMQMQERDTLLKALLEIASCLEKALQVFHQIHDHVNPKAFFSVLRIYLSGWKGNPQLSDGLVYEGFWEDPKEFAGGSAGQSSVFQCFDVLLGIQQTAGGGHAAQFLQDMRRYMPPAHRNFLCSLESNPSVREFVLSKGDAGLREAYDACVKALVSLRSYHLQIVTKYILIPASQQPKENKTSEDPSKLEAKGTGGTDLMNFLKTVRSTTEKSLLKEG
# experimental_details: hIDO biochemical coupled assay
# run_parameters: 45 μM L-tryptophan
measurement_kind: pIC50 hIDO biochemical coupled assay

CC1(C)CN(c2cc(C(F)(F)F)cc3cncn23)CCC12NC(=O)N(CC1CCOCC1)C2=O (centres unmarked) [Example 14] ... 5.92
O=C1NC(=O)C2(CCN(c3cc(Br)cc4cncn34)CC2)N1 [Example 2] ... 7.19
CN1C(=O)NC2(CCN(c3cc(C(F)(F)F)cc4cncn34)CC2)C1=O [Example 6] ... 5.89
O=C1CC2(CCN(c3cc(C(F)(F)F)cc4cncn34)CC2)C(=O)N1 [Example 13] ... 6.53
O=C1NC(=O)C2(CCN(c3cc(C(F)(F)F)cc4cncn34)CC2)N1 [Example 1] ... 7.53
O=C1NC2(CCN(c3cc(C(F)(F)F)cc4cncn34)CC2)C(=O)N1c1ccccc1 [Example 9] ... 6.58
O=C1NC2(CCN(c3cc(C(F)(F)F)cc4cncn34)CC2)C(=O)N1CC1CCOCC1 [Example 7] ... 5.92
CC1(C)CN(c2cc(C(F)(F)F)cn3cncc23)CCC12NC(=O)NC2=O (centres unmarked) [Example 12] ... 5.74
CN1C(=O)NC2(CCN(c3cc(C(F)(F)F)cc4cncn34)CC2(C)C)C1=O (centres unmarked) [Example 10] ... 6.2
O=C1NC(=O)C2(CCN(c3cc(C(F)(F)F)cn4cncc34)CC2)N1 [Example 4] ... 5.99
O=C1NC(=O)C2(CCN(c3cc(Cl)cc4cncn34)CC2)N1 [Example 3] ... 6.55
CC1(C)CN(c2cc(Cl)cc3cncn23)CCC12NC(=O)NC2=O (centres unmarked) [Example 11] ... 6.99
CC1(C)CN(c2cc(C(F)(F)F)cc3cncn23)CCC12NC(=O)N(c1ccccc1)C2=O (centres unmarked) [Example 15] ... 5.66
CC1(C)CN(c2cc(Br)cc3cncn23)CCC12NC(=O)NC2=O (centres unmarked) [Example 16] ... 7.06

###

# target_system: TDO (Homo sapiens (Human), UniProt P48775)
# experimental_details: hTDO biochemical coupled assay
# run_parameters: 330 μM L-tryptophan
measurement_kind: pIC50 hTDO biochemical coupled assay

O=C1NC(=O)C2(CCN(c3cc(C(F)(F)F)cc4cncn34)CC2)N1 ... 5.6
CC1(C)CN(c2cc(C(F)(F)F)cn3cncc23)CCC12NC(=O)NC2=O (stereo not drawn) ... 6.1
CC1(C)CN(c2cc(C(F)(F)F)cc3cncn23)CCC12NC(=O)N(c1ccccc1)C2=O (stereo not drawn) ... 4.42
O=C1NC(=O)C2(CCN(c3cc(Br)cc4cncn34)CC2)N1 ... 6.29
O=C1NC(=O)C2(CCN(c3cc(C(F)(F)F)cn4cncc34)CC2)N1 ... 5.84
CC1(C)CN(c2cc(C(F)(F)F)cc3cncn23)CCC12NC(=O)N(CC1CCOCC1)C2=O (stereo not drawn) ... 4.78
O=C1NC(=O)C2(CCN(c3cc(Cl)cc4cncn34)CC2)N1 ... 5.85
O=C1NC2(CCN(c3cc(C(F)(F)F)cc4cncn34)CC2)C(=O)N1CC1CCOCC1 ... 5.4
O=C1CC2(CCN(c3cc(C(F)(F)F)cc4cncn34)CC2)C(=O)N1 ... 5.77

###

# target_system: UniProt P14902
# experimental_details: IDO1 HEK293 Cellular Assay
# Type: cell-based
# run_parameters: HEK293 cells transfected with Flag-IDO1 vector; read-out: HEK293 Cell Assay, pIC50 (converted)
measurement_kind: IC50 (nM)

CC1=NC2(CCN(c3cc(C(F)(F)F)cc4cncn34)CC2)C(=O)N1 ... 1580
CC(=O)N1CCC2(CC1)CCN(c1cc(C(F)(F)F)cc3cncn13)CC2 ... 2000

[I] O=C1OCCC12CCN(c1cc(C(F)(F)F)cc3cncn13)CC2
[II] O=C1NCCC12CCN(c1cc(C(F)(F)F)cc3cncn13)CC2
Field: lower recorded IC50 (choose I or II ) Selection: enter the item's label.
I
